pEC50 for assorted molecules
Tested on: human Jurkat T cells deficient in FADD
Measurement description: Cell protection effect under apoptosis-inducing condition (TNF-α)
Assay type: cell-based
Stated conditions: 40 ng of TNF-α, 50 hours, CellTiter-Glo, read-out: I2.I Cell EC50
Where a name gives a salt, the structure may show the parent alone.
Note on units: pEC50 is unitless, being -log10 of a concentration expressed in mol/L.

{"Molecule": "CNC(=O)Nc1cccn2c(C#Cc3cccc(NC(=O)N4N=CCC4c4ccccc4)c3)cnc12 (centres unmarked) [Example 61, 2,2,2-trifluoroacetate]", "Target of assay": "human Jurkat T cells deficient in FADD", "pEC50": 9.40}
{"Molecule": "O=C(Nc1cccc(C#Cc2cnc3cccnn23)c1)N1N=CCC1C1CCCCC1 (centres unmarked)", "Target of assay": "human Jurkat T cells deficient in FADD", "pEC50": 8.82}
{"Molecule": "O=C(Nc1cccc(C#Cc2cnc3cccnn23)c1)N1N=CCC1c1ccncc1 (centres unmarked) [Example 38, hydrochloride]", "Target of assay": "human Jurkat T cells deficient in FADD", "pEC50": 6.97}
{"Molecule": "Cn1ccc(Nc2cccn3c(C#Cc4cccc(NC(=O)N5N=CCC5c5ccccc5)c4)cnc23)n1 (centres unmarked) [Example 68, 2,2,2-trifluoroacetate]", "Target of assay": "human Jurkat T cells deficient in FADD", "pEC50": 9.92}
{"Molecule": "O=C(Nc1cccc(C#Cc2cnc3cccnn23)c1)N1N=CCC1c1cccc(F)c1 (centres unmarked) [Example 28, 2,2,2-trifluoroacetate]", "Target of assay": "human Jurkat T cells deficient in FADD", "pEC50": 9.10}

Ask | Give the reported pEC50 for O=C(Nc1cccc(C#Cc2cnc3cccnn23)c1)N1N=CC[C@H]1c1cc(F)cc(F)c1 [Example 24, 2,2,2-trifluoroacetate] (system: human Jurkat T cells deficient in FADD).
Reply | 9.36

Ask | Then this molecule: COC(=O)Nc1cccn2c(C#Cc3cccc(NC(=O)N4N=CCC4c4ccccc4)c3)cnc12 (centres unmarked)
Reply | 8.96

Ask | Subsequent entry: O=C(Nc1cccc(C#Cc2cnn3cccnc23)c1)N1N=CCC1c1ccccc1 (centres unmarked)
Reply | 9.52

Ask | // query: O=C(Nc1cccn2c(C#Cc3cccc(NC(=O)N4N=CCC4c4ccccc4)c3)cnc12)C1CC1 (centres unmarked) [Example 62, 2,2,2-trifluoroacetate]
Reply | 8.77

Ask | Repeat for the following molecule: O=C(Nc1ccc(F)c(C#Cc2cnc3cccnn23)c1)N1N=CC[C@H]1c1ccccc1 [Example 45, 2,2,2-trifluoroacetate]
Reply | 10.05

Ask | Do the same for Cc1ccc(NC(=O)N2N=CCC2c2ccc(Cl)cc2)cc1C#Cc1cnc2cccnn12 (centres unmarked) [Example 15, 2,2,2-trifluoroacetate] please
Reply | 10.00

Ask | Consider next the molecule O=C(Nc1cccc(C#Cc2cnc3cnccn23)c1)N1N=CCC1c1ccccc1 (centres unmarked) in the same way.
Reply | 9.52

Ask | // query: O=C(Nc1cccc(C#Cc2cnc3cccnn23)c1)N1N=CCC1c1ccc2c(c1)OCO2 (centres unmarked) [Example 39, 2,2,2-trifluoroacetate]
Reply | 8.55

###

Target of assay: human GST-RIPK1 (Homo sapiens, UniProt Q13546)
Sequence (Q13546 1-375 limits assumed): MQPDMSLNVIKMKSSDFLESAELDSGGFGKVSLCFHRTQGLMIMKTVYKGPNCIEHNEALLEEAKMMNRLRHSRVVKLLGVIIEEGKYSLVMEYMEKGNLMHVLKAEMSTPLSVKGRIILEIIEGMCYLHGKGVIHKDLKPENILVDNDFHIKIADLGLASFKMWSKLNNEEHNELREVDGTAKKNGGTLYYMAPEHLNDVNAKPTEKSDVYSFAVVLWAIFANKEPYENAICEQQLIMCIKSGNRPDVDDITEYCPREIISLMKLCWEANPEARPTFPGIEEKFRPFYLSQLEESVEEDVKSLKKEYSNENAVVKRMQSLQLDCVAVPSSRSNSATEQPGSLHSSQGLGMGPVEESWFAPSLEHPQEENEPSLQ
Measured metric: IC50 (nM)
Report the value in nM with no unit label.

Worked examples follow.
{"Compound": "Cc1ccc(NC(=O)N2N=CCC2c2ccc(F)cc2)cc1C#Cc1cnc2cccnn12 (stereo not drawn) [Example 11, 2,2,2-trifluoroacetate]", "IC50, nM": 47.4}
{"Compound": "O=C(Nc1cccc(C#Cc2cnc3cccnn23)c1)N1N=CC[C@H]1c1ccc(F)cc1 [Example 32, 2,2,2-trifluoroacetate]", "IC50, nM": 4.83}

In the following, a different compound is considered.
Ask | Kindly state the measured IC50 obtained for Cc1ccc(NC(=O)N2N=CCC2c2ccc(C(F)(F)F)cc2)cc1C#Cc1cnc2cccnn12 (stereo not drawn) [Example 7, 2,2,2-trifluoroacetate] with human GST-RIPK1 (Homo sapiens, UniProt Q13546).
Reply | 134

###

human GST-RIPK1 (Homo sapiens, UniProt Q13546) data, read-out log10(IC50)
# log10 transformed; quantity=IC50; unit=nM

{"Compound": "O=C(Nc1ccnc(C#Cc2cnc3cccnn23)c1)N1N=CC[C@H]1c1ccccc1 [Example 49, 2,2,2-trifluoroacetate]", "log10(IC50)": 0.28}
{"Compound": "O=C(Nc1cc(C#Cc2cnc3cccnn23)ccn1)N1N=CCC1c1ccccc1 (stereo not shown) [Example 52, 2,2,2-trifluoroacetate]", "log10(IC50)": 2.89}
{"Compound": "COc1ccc(C2CC=NN2C(=O)Nc2cccc(C#Cc3cnc4cccnn34)c2)cc1 (stereo not shown) [Example 27, 2,2,2-trifluoroacetate]", "log10(IC50)": 0.37}
{"Compound": "O=C(Nc1cccc(C#Cc2cnc3cccnn23)c1)N1N=CC[C@H]1c1cc(F)cc(F)c1 [Example 24, 2,2,2-trifluoroacetate]", "log10(IC50)": 0.44}
{"Compound": "Cc1ccc(NC(=O)N2N=CC[C@H]2c2cccc(F)c2)cc1C#Cc1cnc2cccnn12 [Example 9, 2,2,2-trifluoroacetate]", "log10(IC50)": 1.29}

Query compound follows.
Ask | What does the data say about its log10(IC50)? Entry: O=C(Nc1cccn2c(C#Cc3cccc(NC(=O)N4N=CCC4c4ccccc4)c3)cnc12)C1CC1 (stereo not shown) [Example 62, 2,2,2-trifluoroacetate]
Reply | 2.25

###

Target of assay: UniProt Q13546
pIC50: −log10 of the molar value.
Rule: pIC50 of 8 or more gives Condition met; anything lower gives Condition not met.

{"Molecule": "Cc1ccc(NC(=O)N2N=CC[C@@H]2c2cccc(F)c2)cc1C#Cc1cnc2cccnn12 [Example 10, 2,2,2-trifluoroacetate]", "Qualitative label": "Condition not met"}

Ask | Decide: is the reported value of pIC50 for Cc1ccc(NC(=O)N2N=CC[C@H]2c2ccccc2)cc1C#Cc1cnc2cccnn12 [Example 2, 2,2,2-trifluoroacetate] equal to or greater than 8?
Reply | Condition met

Ask | Same question, Cc1ccc(NC(=O)N2N=CC[C@H]2c2cc(F)cc(F)c2)cc1C#Cc1cnc2cccnn12 [Example 5, 2,2,2-trifluoroacetate] this time
Reply | Condition met

Ask | Repeat for the following molecule: Cc1ccc(NC(=O)N2N=CCC2c2ccncc2)cc1C#Cc1cnc2cccnn12 (stereo not drawn) [Example 18, 2,2,2-trifluoroacetate]
Reply | Condition met

Ask | Then what about the molecule O=C(Nc1ccc(F)c(C#Cc2cnc3cccnn23)c1)N1N=CC[C@@H]1c1ccccc1 [Example 46, 2,2,2-trifluoroacetate] ?
Reply | Condition not met

###

Tested on: human Jurkat T cells deficient in FADD
Measurement description: Cell protection effect under apoptosis-inducing condition (TNF-α)
Format: cell-based
Stated conditions: 40 ng of TNF-α, 50 hours, CellTiter-Glo, read-out: I2.I Cell EC50
Measured metric: pEC50
For clarity, pEC50 is expressed as the negative log10 of concentration in mol/L.

Recorded pEC50, per entry:
{"Molecule": "Cc1ccc(NC(=O)N2N=CCC2c2ccncc2)cc1C#Cc1cnc2cccnn12 (centres unmarked) [Example 18, 2,2,2-trifluoroacetate]", "Target of assay": "human Jurkat T cells deficient in FADD", "Measured metric": "pEC50", "Quantitative result": 9.52}
{"Molecule": "S=C(Nc1cccc(C#Cc2cnc3cccnn23)c1)N1N=CCC1c1ccccc1 (centres unmarked)", "Target of assay": "human Jurkat T cells deficient in FADD", "Measured metric": "pEC50", "Quantitative result": 8.17}
{"Molecule": "Cc1ccc(NC(=O)N2N=CCC2c2ccc(F)cc2)cc1C#Cc1cnc2cccnn12 (centres unmarked) [Example 11, 2,2,2-trifluoroacetate]", "Target of assay": "human Jurkat T cells deficient in FADD", "Measured metric": "pEC50", "Quantitative result": 9.46}
{"Molecule": "O=C(Nc1cccc(C#Cc2cnc3cccnn23)c1)N1N=CCC1c1ccc(F)cc1 (centres unmarked) [Example 31, 2,2,2-trifluoroacetate]", "Target of assay": "human Jurkat T cells deficient in FADD", "Measured metric": "pEC50", "Quantitative result": 8.84}
{"Molecule": "O=C(Nc1cccc(C#Cc2cnc3cccnn23)c1)N1N=CCC1c1ccc(C(F)(F)F)cc1 (centres unmarked) [Example 26, 2,2,2-trifluoroacetate]", "Target of assay": "human Jurkat T cells deficient in FADD", "Measured metric": "pEC50", "Quantitative result": 6.70}

Ask | Which pEC50 is reported for this molecule? O=C(Nc1cccc(C#Cc2cnc3cccnn23)c1)N1N=CCC1c1ccc(Cl)cc1 (centres unmarked) [Example 35, 2,2,2-trifluoroacetate]
Reply | 8.41

Ask | // query: Cc1ccc(NC(=O)N2N=CCC2c2ccccn2)cc1C#Cc1cnc2cccnn12 (centres unmarked) [Example 17, 2,2,2-trifluoroacetate]
Reply | 9.70

Ask | // query: O=C(Nc1cccc(C#Cc2cnc3cccnn23)c1)N1N=CCC1c1cc(F)cc(F)c1 (centres unmarked) [Example 23, 2,2,2-trifluoroacetate]
Reply | 8.92

Ask | Also Cc1ccc(NC(=O)N2N=CCC2c2ccc(C(F)(F)F)cc2)cc1C#Cc1cnc2cccnn12 (centres unmarked) [Example 7, 2,2,2-trifluoroacetate] ?
Reply | 8.72

Ask | Also Cc1ccc(NC(=O)N2N=CCC2c2cccc(F)c2)cc1C#Cc1cnc2cccnn12 (centres unmarked) [Example 8, 2,2,2-trifluoroacetate] , if possible.
Reply | 9.23

Ask | Also need O=C(Nc1ccnc(C#Cc2cnc3cccnn23)c1)N1N=CCC1c1ccccc1 (centres unmarked) [Example 48, 2,2,2-trifluoroacetate] , thanks.
Reply | 8.85

Ask | Repeat for the following molecule: O=C(Nc1cccc(C#Cc2cnc3cccnn23)c1)N1N=CCC1c1cc2ccccc2cn1 (centres unmarked)
Reply | 7.19

Ask | Would you kindly repeat that for CS(=O)(=O)c1ccc(Nc2cccn3c(C#Cc4cccc(NC(=O)N5N=CCC5c5ccccc5)c4)cnc23)cc1 (centres unmarked) [Example 65, 2,2,2-trifluoroacetate] ?
Reply | 9.70
